- MEASURED ON: T1, human TIGIT protein (human, UniProt Q495A1 22-141, limits assumed)
- T1 construct: Recombinant protein (Genentech) used in ELISA screening and as SPR analyte; also called TIGIT antigen
- T1 sequence: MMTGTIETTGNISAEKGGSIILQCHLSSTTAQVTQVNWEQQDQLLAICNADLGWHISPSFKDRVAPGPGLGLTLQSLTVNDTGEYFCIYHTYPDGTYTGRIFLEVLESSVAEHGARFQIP
- EXPERIMENT: SPR, bivalent affinity
PARAMETER MEASURED: pKd
To interpret pKd, take it as minus log10 of a concentration measured in moles per litre.

BINDER	pKd
4.1A4 (antibody, V domains shown, OMT rat-derived human antibody; also called 4.1A4.Q1.C96) VH: QVQLVQSGSELKKPGASVKVSCKASGYTLTNYPMNWVRQAPGRGLEWMGWINTNTGSPAYAQDFTERFVFSLDTSVTTAYLQISSLKAEDTAVYYCARTAITSVYHFDYWGQGTLVTVSS VL: DIQLTQSPSFLSASVGDRVTITCRASQGISSYLAWYQQKPGKAPRVLIYGATTLQSGVPSRFSGSESGTEFTLTISSLQPEDLATYYCQKLNSHPCSFGQGTKVEIK	9.51

Moving on to another binder below.
Inquiry: Give pKd for the following binder: 7.4A3 (antibody, V domains shown, OMT rat-derived human antibody; also called 7.4A3.Q1.C96) VH: QVQLVQSGSDLKKPGASVRVSCKASGYTFTSYPMNWVRQAPGHGLEWMGWINTNTGNPTYVQGFTGRFVFSLDTSVNTAYLQISSLKAEDTAVYFCARTGGHTYDSYAFDVWGQGTMVTVSS VL: DIQLTQSPTFLSASVGDRVTITCRASQVISSSLAWYQQNPGKAPKLLIYAASTLQSGVPSRFSGSGSGTEFTLTISSLQPEDFVTYYCQHLHGYPCNFGQGTKVEIK
Reply text: 10.01
